# assay-notes: Liquid-liquid partition coefficients between FC-72 and organic solvents (partitioning followed by HPLC analysis)
# Type: physicochemical
# test-parameters: room temperature; 50/50 (v/v) FC-72/THF
Tick 1 (yes) if Partition coefficient FC-72/THF (P = cfluorous phase/corganic phase) is 0.05 or greater. Tick 0 (no) if Partition coefficient FC-72/THF (P = cfluorous phase/corganic phase) is less than 0.05.

Item FC(F)(F)C(F)(F)C(F)(F)C(F)(F)C(F)(F)C(F)(F)CCc1ccc(P(c2ccc(CCC(F)(F)C(F)(F)C(F)(F)C(F)(F)C(F)(F)C(F)(F)F)cc2)c2ccc(CCC(F)(F)C(F)(F)C(F)(F)C(F)(F)C(F)(F)C(F)(F)F)cc2)cc1 [Compound 1a] with Partition coefficient FC-72/THF (P = cfluorous phase/corganic phase) of 0.05 or above?
1 (yes)

Hi team, for FC(F)(F)C(F)(F)C(F)(F)C(F)(F)C(F)(F)C(F)(F)CCc1ccc(P(c2ccccc2)c2ccccc2)cc1 [Compound 1c] , is the recorded Partition coefficient FC-72/THF (P = cfluorous phase/corganic phase) at or above 0.05?
0 (no)

Please indicate if the recorded Partition coefficient FC-72/THF (P = cfluorous phase/corganic phase) for FC(F)(F)C(F)(F)C(F)(F)C(Cc1ccc(P(c2ccc(CC(C(F)(F)F)(C(F)(F)F)C(F)(F)C(F)(F)C(F)(F)F)cc2)c2ccc(CC(C(F)(F)F)(C(F)(F)F)C(F)(F)C(F)(F)C(F)(F)F)cc2)cc1)(C(F)(F)F)C(F)(F)F [Compound 5a] meets or exceeds 0.05.
1 (yes)

Kindly determine if Partition coefficient FC-72/THF (P = cfluorous phase/corganic phase) recorded for FC(F)(F)C(F)(F)C(F)(F)C(Cc1ccc(P(c2ccccc2)c2ccc(CC(C(F)(F)F)(C(F)(F)F)C(F)(F)C(F)(F)C(F)(F)F)cc2)cc1)(C(F)(F)F)C(F)(F)F [Compound 5b] is above or exactly 0.05.
1 (yes)

Determine whether measured Partition coefficient FC-72/THF (P = cfluorous phase/corganic phase) meets or exceeds 0.05 for FC(F)(F)C(F)(F)C(F)(F)C(Cc1ccc(P(c2ccccc2)c2ccccc2)cc1)(C(F)(F)F)C(F)(F)F [Compound 5c]
0 (no)
